assay: Evaluation of dissolution stability (content change on storage in dissolved state); assay type: physicochemical; conditions: 1 mg/1 ml dissolved state, 40° C. and RH 75%, day 7
Where no end group is shown, it is not given here. [ ]: non-standard residue; d: D form. The star is where a group is joined. Pro(cis-4-F) = O=C(O)[C@@H]1C[C@H](F)CN1; Hyp = O=C(O)[C@@H]1C[C@@H](O)CN1; OiPr = CC(C)O*
Values of Day 7 content (%) strictly less than 90% map to TRUE, and values of at least 90% map to FALSE.

In [3]: df
Out[3]:
                                  substance  category
0  Hyp-Gly-Gln-His-Gly-Leu-Ala ([Hyp]GQHGLA) [Example 80]     FALSE
1  Hyp-Gly-Gln-His-Gly-Leu ([Hyp]GQHGL) [Example 82]      TRUE
2  Hyp-Gly-Gln-Glu-Leu-Leu ([Hyp]GQELL) [Example 88]     FALSE
3  cis-4F-Pro-Gly-Gln-Asp-Gly ([Pro(cis-4-F)]GQDG) [Example 41]      TRUE
4  Hyp-Gly-Gln-Asp-Ala-Leu-Ala ([Hyp]GQDALA) [Example 39]      TRUE
5  Hyp-Gly-Gln-Asp-Gly-Leu-Ala (isopropyl ester) ([Hyp]GQDGLA-OiPr) [Example 108]      TRUE

Ask | Does the reported Day 7 content (%) of Hyp-Gly-Gln-Leu-Leu-Leu-Ala ([Hyp]GQLLLA) [Example 96] stay below 90%?
Reply | FALSE

Ask | Try the substance Hyp-Gly-Gln-Glu-Leu ([Hyp]GQEL) [Example 90]
Reply | FALSE

---

test: Evaluation of dissolution stability (content change on storage in dissolved state); assay type: physicochemical; conditions: 1 mg/1 ml dissolved state, 40° C. and RH 75%, day 1
Where no end group is shown, it is not given here. [ ]: non-standard residue; d: D form. Pro(4,4-Me2) = CC1(C)CN[C@H](C(=O)O)C1; Hyp = O=C(O)[C@@H]1C[C@@H](O)CN1; dHyp = O=C(O)[C@H]1C[C@H](O)CN1
Parameter Day 1 content (%): see the listing below.
Supply the numeric figure in %, leaving out any unit text.

In [3]: df
Out[3]:
                                  substance    recorded_metric  obs_value
0  Hyp-Gly-Gln-Glu-Gly ([Hyp]GQEG) [Example 67]  Day 1 content (%)      99.14

Ask | Could you tell me which Day 1 content (%) is on file for D Hyp-Gly-Gln-Asp-Gly-Leu-Ala ([dHyp]GQDGLA) [Example 50] ?
Reply | 89.44

Ask | Try the substance Hyp-Gly-Gln-Glu-Val-Leu ([Hyp]GQEVL) [Example 89]
Reply | 99.07

Ask | Try the substance 4,4-dimethyl Pro-Gly-Gln-Asp-Gly-Leu ([Pro(4,4-Me2)]GQDGL) [Example 56]
Reply | 84.52

---

assay: Evaluation of dissolution stability (content change on storage in dissolved state); type: physicochemical; conditions: 1 mg/1 ml dissolved state, 40° C. and RH 75%, initial
Where no end group is shown, it is not given here. [ ]: non-standard residue; d: D form. Hyp = O=C(O)[C@@H]1C[C@@H](O)CN1
recorded_metric: Initial content (%)
Supply the numeric figure in %, leaving out any unit text.

                                  substance  units_text  obs_value
0  Hyp-Gly-Gln-Ala-Leu ([Hyp]GQAL) [Example 120]           %      99.07

Consider the additional substance presented here.
Ask | Could you tell me which Initial content (%) is on file for DGLAGPK [Example 19] ?
Reply | 95.90
